fold over background MFI reference
# Assayed target: T1, human Prostate Specific Membrane Antigen (PSMA) (human, UniProt Q04609 1-750)
# T1 construct: whole, on cells; also called Glutamate Carboxypeptidase II; FOLH1
# T1 sequence (Q04609 whole entry): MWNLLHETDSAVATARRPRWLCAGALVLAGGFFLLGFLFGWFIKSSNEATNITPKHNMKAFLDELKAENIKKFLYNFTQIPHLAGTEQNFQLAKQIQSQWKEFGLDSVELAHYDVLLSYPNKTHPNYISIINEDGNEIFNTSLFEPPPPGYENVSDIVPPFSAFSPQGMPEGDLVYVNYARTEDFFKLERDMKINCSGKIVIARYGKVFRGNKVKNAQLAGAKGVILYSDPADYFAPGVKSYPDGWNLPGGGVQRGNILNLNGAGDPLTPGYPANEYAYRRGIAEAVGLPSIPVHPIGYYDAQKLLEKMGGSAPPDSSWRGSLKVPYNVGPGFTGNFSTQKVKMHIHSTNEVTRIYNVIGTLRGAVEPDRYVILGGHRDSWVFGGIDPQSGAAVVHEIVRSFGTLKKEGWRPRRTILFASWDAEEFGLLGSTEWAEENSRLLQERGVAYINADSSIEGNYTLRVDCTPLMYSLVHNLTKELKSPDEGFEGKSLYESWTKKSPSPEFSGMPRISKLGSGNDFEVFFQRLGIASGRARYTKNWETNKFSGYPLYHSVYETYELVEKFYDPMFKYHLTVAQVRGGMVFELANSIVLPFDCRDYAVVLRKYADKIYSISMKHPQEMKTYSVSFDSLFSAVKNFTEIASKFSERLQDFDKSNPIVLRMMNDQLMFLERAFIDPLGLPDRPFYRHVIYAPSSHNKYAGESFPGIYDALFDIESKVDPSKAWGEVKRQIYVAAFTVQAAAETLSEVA
# Method summary: flow cytometry on LNCaP cells
// return numeric value only (unit: fold over background, not printed)

Example results:
| Binder | Unit | Value measured |
| --- | --- | --- |
| anti-PSMA heavy-chain antibody (HCAb) clone ID 345436 (antibody, V domains shown, Heavy chain-only antibody (UniAb)) VH: QVQLVESGGGVVQPGRSLRLSCAASGFSFSRYGMHWVRQAPGKGLEGVAVIWYDGSNKYYADSVKGRFTISRDNSKNTLYLQMNSLRAEDTAVYYCAREPRIGYYYESSGYYSLDYRGQGTLVTVSS | fold over background | 87 |
| anti-PSMA heavy-chain antibody (HCAb) clone ID 326028 (antibody, V domains shown, Heavy chain-only antibody (UniAb)) VH: QVQLVESGGGVVQPGRSLRLSCAASGFSFRSYGMHWVRQAPGKGLEWVAVISYDGSNKYYADSVKGRFTISRDYSKNTLYLQMNSLRAEDTAVYYCAREPRIGYYYDSSGYDSLDYRGQGTLVTVSS | fold over background | 117 |
| anti-PSMA heavy-chain antibody (HCAb) clone ID 345508 (antibody, V domains shown, Heavy chain-only antibody (UniAb)) VH: QVQLVESGGGVVQPGRSLRLSCAASGFSFSSYGMHWVRQAPGKGPEWVAVIWYDGSNRYYADSVKGRFTISRDNSKNTLYLQMNSLRAEDTAVYYCAREPRIGYYYESSGYYSLDYRGQGTLVTVSS | fold over background | 55 |

Pending binder:
Data request: Consider the binder anti-PSMA heavy-chain antibody (HCAb) clone ID 345444 (antibody, V domains shown, Heavy chain-only antibody (UniAb)) VH: QVQLVESGGGVVQPGRSLRLSCAASGFTFSSYGMHWVRQAPGKGLEGVAVIWYDGSNRYYADSVKGRFTISRDNSKNTLYLQMNSLRAEDTAVYYCAREPRIGYYYESSGYYSLDYRGQGTLVTVSS . State its measured fold over background MFI.
Data returned: 23
